# protocolNotes: M. tuberculosis growth inhibition, HTS (AID 1259417);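 note: bacteria grown with compound for 5 days at 37 °C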
# assayConditions: M. tuberculosis growth inhibition; stronger effect = higher value; concentration not given here
The whole screen tested about 1,100 compounds, of which about 760 (69%) were called active. The set was probably picked from earlier hits. The list shows a part of the results.
Parameter inhibition: see the listing below.
Answer format: value, then unit.

The examples below pair each entry with its known result.
compound: O=C(Nc1ccc(C(F)(F)F)cc1)Nc1cccc(Cl)c1
inhibition: 100%
//
compound: COC(=O)c1ccc(OCC(=O)Nc2ccccc2F)cc1
inhibition: 74.2%
//
compound: Cc1cccc(OCC(O)CN2CCN(CCN3C(=O)c4cccc5cccc(c45)C3=O)CC2)c1C (centres undefined)
inhibition: -19.3%

Now, please, on to the next compound.
Would you mind telling me what inhibition value was observed for Cc1cc(Nc2ccccc2)n(-c2nc3ccccc3[nH]2)n1 ?
93.2%
